Tested on: SVG p12 cells
Test: MTT cell viability assay, SVG p12
Assay type: cell-based, human
Settings: IC50 SVG p12 vs average IC50 in A-172, U87 and U87-TxR
We begin with a simple list: items and their reported Selectivity Index.

structure_string=CC1(C)CCC[C@]2(C)[C@@H](CC[C@@](C)(O)/C=C/c3ccc(CNCCCCCCCCNCC45CC6CC(CC(C6)C4)C5)s3)[C@](C)(O)CC[C@@H]12 assay_target="SVG p12 cells" meas_value="2.813 ^S"
structure_string=CC1(C)CCC[C@]2(C)[C@@H](CC[C@@](C)(O)/C=C/c3ccc(CNCCCCCCNCC45CC6CC(CC(C6)C4)C5)s3)[C@](C)(O)CC[C@@H]12 assay_target="SVG p12 cells" meas_value="2.300 ^S"

Moving on to the next molecule.
Prompt: Name the recorded Selectivity Index for "CC1(C)CCC[C@]2(C)[C@@H](CC[C@@](C)(O)/C=C/c3ccc(CNCCCCCCNCCC45CC6CC(CC(C6)C4)C5)s3)[C@](C)(O)CC[C@@H]12" .
Completion: 3.541 ^S
